# Study Target: Prostaglandin G/H synthase 1 (Ovis aries) (UniProt P05979)
# Assay Procedure: Inhibition of ovine COX1 assessed as reduction in prostaglandin E2 production incubated for 10 mins before arachidonic acid addition and measured after 25 mins by LC-MS/MS analysis
pIC50: −log10 of the molar value.

- Smiles Notation: "COC(=O)[C@@H](C)c1ccc2c(C)cc(O)c(C)c2c1"
  pIC50: 4.51

---

# Study Target: Prostaglandin G/H synthase 2 (Homo sapiens) (UniProt P35354)
# Sequence (P35354 whole entry, looked up): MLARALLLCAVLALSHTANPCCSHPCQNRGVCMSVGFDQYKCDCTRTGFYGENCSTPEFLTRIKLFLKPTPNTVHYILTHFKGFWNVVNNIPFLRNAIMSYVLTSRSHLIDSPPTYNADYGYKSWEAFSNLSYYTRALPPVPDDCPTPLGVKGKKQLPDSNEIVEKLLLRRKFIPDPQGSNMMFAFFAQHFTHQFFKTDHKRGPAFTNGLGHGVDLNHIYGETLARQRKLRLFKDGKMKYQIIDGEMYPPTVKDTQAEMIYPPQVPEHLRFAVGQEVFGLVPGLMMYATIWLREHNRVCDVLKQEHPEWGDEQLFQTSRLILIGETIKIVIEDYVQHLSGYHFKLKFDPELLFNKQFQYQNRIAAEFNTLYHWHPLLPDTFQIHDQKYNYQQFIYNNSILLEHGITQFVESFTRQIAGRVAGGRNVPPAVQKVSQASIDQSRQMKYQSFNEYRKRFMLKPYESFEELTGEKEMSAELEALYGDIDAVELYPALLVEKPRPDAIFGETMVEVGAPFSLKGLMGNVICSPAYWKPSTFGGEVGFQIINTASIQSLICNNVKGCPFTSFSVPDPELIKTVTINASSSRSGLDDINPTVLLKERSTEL
# Assay Procedure: Inhibition of COX2 (unknown origin) assessed as reduction in prostaglandin E2 production incubated for 10 mins before arachidonic acid addition and measured after 25 mins by LC-MS/MS analysis
pIC50: −log10 of the molar value.
Readout Name: pIC50

- Smiles Notation: "COC(=O)[C@@H](C)c1ccc2c(C)cc(O)c(C)c2c1"
  Quantitative Result: 4.18

FYI, the data here is from BindingDB's records for doi:10.1021/acs.jnatprod.8b00318.
